SYSTEM_TESTED: Aryl hydrocarbon receptor (Rattus norvegicus)
Sequence (P41738 whole entry): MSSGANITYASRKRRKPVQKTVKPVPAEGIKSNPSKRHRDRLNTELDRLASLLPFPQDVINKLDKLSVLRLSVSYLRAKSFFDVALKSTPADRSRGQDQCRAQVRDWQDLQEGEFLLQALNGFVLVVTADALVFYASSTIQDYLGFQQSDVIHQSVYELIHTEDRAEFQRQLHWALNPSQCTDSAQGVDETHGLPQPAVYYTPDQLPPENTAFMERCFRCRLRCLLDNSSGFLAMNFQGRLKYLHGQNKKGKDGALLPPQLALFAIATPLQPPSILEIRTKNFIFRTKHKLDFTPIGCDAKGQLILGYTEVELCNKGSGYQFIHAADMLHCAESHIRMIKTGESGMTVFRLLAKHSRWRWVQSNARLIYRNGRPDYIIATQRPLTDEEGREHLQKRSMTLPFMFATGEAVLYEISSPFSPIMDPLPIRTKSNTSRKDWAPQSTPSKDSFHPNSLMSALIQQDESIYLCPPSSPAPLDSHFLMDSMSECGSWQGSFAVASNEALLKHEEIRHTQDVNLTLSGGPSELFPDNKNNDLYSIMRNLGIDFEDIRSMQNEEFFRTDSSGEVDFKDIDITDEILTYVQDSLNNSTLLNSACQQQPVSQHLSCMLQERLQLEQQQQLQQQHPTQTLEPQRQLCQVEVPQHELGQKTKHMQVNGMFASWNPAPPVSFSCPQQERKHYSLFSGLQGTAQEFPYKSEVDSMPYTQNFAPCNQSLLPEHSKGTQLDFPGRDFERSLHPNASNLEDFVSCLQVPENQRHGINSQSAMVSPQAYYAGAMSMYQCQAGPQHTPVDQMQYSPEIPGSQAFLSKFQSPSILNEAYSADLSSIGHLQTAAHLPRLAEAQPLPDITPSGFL
pIC50: −log10 of the molar value.

| SMILES_STRUCTURE | pIC50 |
| --- | --- |
| COc1ccc(-c2nc3cc(F)ccc3s2)cc1OC | 7.60 |
